# assayed_target: full-length beta-Catenin (Uniprot ID P35222) (Homo sapiens)
# Construct: 10 nM full-length beta-Catenin (Uniprot ID P35222)
# Sequence (P35222 whole entry): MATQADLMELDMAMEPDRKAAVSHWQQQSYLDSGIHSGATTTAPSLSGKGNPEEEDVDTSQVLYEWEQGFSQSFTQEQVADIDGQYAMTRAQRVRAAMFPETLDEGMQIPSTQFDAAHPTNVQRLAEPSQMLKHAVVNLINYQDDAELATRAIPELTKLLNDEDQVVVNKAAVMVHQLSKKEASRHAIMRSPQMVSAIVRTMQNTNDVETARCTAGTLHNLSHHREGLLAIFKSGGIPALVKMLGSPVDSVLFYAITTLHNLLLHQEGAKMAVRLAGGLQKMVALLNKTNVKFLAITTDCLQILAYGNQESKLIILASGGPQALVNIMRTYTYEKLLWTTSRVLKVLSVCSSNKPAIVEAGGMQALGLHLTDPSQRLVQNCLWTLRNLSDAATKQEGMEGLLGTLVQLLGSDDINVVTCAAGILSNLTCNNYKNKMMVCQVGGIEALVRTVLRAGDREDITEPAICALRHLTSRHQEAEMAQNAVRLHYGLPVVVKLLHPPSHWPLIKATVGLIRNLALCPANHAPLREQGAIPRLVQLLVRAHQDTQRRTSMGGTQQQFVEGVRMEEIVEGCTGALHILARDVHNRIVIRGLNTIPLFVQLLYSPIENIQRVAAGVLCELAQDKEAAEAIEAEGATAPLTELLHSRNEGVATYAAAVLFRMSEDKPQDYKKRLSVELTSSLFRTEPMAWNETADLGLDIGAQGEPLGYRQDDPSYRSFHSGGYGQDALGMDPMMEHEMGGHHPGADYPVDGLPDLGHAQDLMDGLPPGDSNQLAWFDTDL
# assay_summary: Fluorescence polarization IC50 (beta-catenin / 5FAM-TCF4 10-53 competition)
# Assay type: binding
# run_conditions: fluorescence polarization, beta-catenin; read-out: FP EC50
reported_metric: pIC50
# pIC50: negative log10 of molar concentration; output just the value

Asked: Report pIC50 for CC(=O)N1CCC[C@]12CC=CCCCC1(CCCC=CCCCCCC[C@@](C)(C(=O)N[C@@H](Cc3ccccc3)C(=O)N[C@@H](Cc3c[nH]c4ccccc34)C(N)=O)NC(=O)[C@H](C(C)C)NC(=O)[C@H](Cc3ccccc3)NC(=O)[C@H](C)NC(=O)[C@H](C)NC(=O)[C@H](CC(=O)O)NC(=O)[C@H](CC(=O)O)NC1=O)NC(=O)[C@H](C)NC(=O)[C@H](CC(=O)O)NC2=O (some centres unmarked) [I-290] tested on full-length beta-Catenin (Uniprot ID P35222) (Homo sapiens).
Given back: 5.48

Asked: Next: CC(=O)N1CCC[C@]12CC=CCCCC1(CCCC=CCCCOC(=O)N3CC[C@@](C(=O)N[C@@H](Cc4ccsc4)C(=O)N[C@@H](Cc4csc5ccccc45)C(=O)N[C@@H](CO)C(N)=O)(C3)NC(=O)[C@H](CC(N)=O)NC(=O)[C@H](Cc3ccccc3)NC(=O)[C@H](C)NC(=O)[C@H](C)NC(=O)[C@H](CN(CC(=O)O)CC(F)(F)F)NC(=O)[C@H](CC(=O)O)NC1=O)NC(=O)[C@H](CC(C)(C)C)NC(=O)[C@H](CC(=O)O)NC2=O (some centres unmarked) [I-940]
Given back: 5.76

Asked: Follow-up entry: CC(=O)N1CCC[C@]12CC=CCCCC1(CCCC=CCCCOC(=O)N3CC[C@@](C(=O)N[C@@H](Cc4ccccc4Cl)C(=O)N[C@@H](Cc4csc5ccccc45)C(=O)N[C@H](C(N)=O)[C@@H](C)O)(C3)NC(=O)[C@H](CC(C)C)NC(=O)[C@H](Cc3ccccc3)NC(=O)[C@H](C)NC(=O)[C@H](C)NC(=O)[C@H](CCC(=O)O)NC(=O)[C@H](CC(=O)O)NC1=O)NC(=O)[C@H](CC(C)(C)C)NC(=O)[C@H](CC(=O)O)NC2=O (some centres unmarked) [I-1071]
Given back: 5.90

Asked: // same read-out, input: CC(=O)N1CCC[C@]12CC=CCCCC1(CCCC=CCCCOC(=O)N3CC[C@@](C(=O)N[C@@H](Cc4ccsc4)C(=O)N[C@@H](Cc4csc5ccccc45)C(=O)N[C@@H](CC(C)C)C(N)=O)(C3)NC(=O)[C@H](CC(N)=O)NC(=O)[C@H](Cc3ccccc3)NC(=O)[C@H](C)NC(=O)[C@H](C)NC(=O)[C@H](CN(CC(=O)O)CC(F)(F)F)NC(=O)[C@H](CC(=O)O)NC1=O)NC(=O)[C@H](CC(C)(C)C)NC(=O)[C@H](CC(=O)O)NC2=O (some centres unmarked) [I-947]
Given back: 5.98

Asked: And the next one, CC(=O)N1CCC[C@]12CC=CCCCC1(CCCC=CCCCOC(=O)N3CC[C@@](C(=O)N[C@@H](Cc4ccccc4C(F)(F)F)C(=O)N[C@@H](Cc4csc5ccccc45)C(=O)N[C@@H](CCC(N)=O)C(N)=O)(C3)NC(=O)[C@H](CC(N)=O)NC(=O)[C@H](Cc3ccccc3)NC(=O)[C@H](C)NC(=O)[C@H](C)NC(=O)[C@H](CN(CC(=O)O)CC(F)(F)F)NC(=O)[C@H](CC(=O)O)NC1=O)NC(=O)[C@H](CC(C)(C)C)NC(=O)[C@H](CC(=O)O)NC2=O (some centres unmarked) [I-928] ?
Given back: 7.68
